assay: yeast display, Sf9 membrane polyspecificity reagent, FACS + sequencing; frameworks hold sequencing errors

# macromolecule.sequence, polyreactivity (PSR sort gate)
data = [
    ("QVQLVESGGGLVQAGGSLRLSCAASGYTFNRNAMGWYRQAPGKERELVASITRRGGYTYYADSVKGRFTISRDNAKNTDYLQMISLKPEDTAVYYCAVESIRTGDYWGQGTQVTVSS", "high polyreactivity"),
    ("QGQRVESGGGLVQAGGSLRLSCAASGSIFTYAMGGSRQAPGNERELGAAISRSGGRTYYADSGKGRFTISRDNAKNTVSLHMNSLKPEDTAVYYCAALLLKDYDYWGPGTQVTVSS", "low polyreactivity"),
    ("QVHLVESGGGLVQAGGSLRLSCAASGRIFAGYAMGWYRQAPGKERELVATITRGGSTNYADSVKRPFTISRDNAKNTVYLQMNSLKPEDTAVYYCADVTWYEEYDSWGQGTQVTVSS", "low polyreactivity"),
    ("QVQLVESRGGLVQAGGSLRLSCAASGSTFKRYTMGWYRQAPGKESELVAAISTSSGSTYYADCVKGRFTISRDNAKNTVYLQMNSLKPDDSAVYYCAAVRHRQSYPKYNYWGQGTQVTVSS", "high polyreactivity"),
    ("QVQLVESGGGLVQAGGSLRLRCAASVRTFYTYAMGWYRQAPGKERELVAAISKRGTSTYYADSVKGRFTISRDNAKNTDYFQMNSLKPQDTAVYYCAAAVYQRARYYWGQGTQVTVSS", "high polyreactivity"),
    ("QVQLVESGGGLVQAGGSLRLSCAASGYIFSTYTMGWYRQAPGKERELVATITVSGGSTYYADSVKGRFTISRDNAKNTVYLQMNSLKPEDTAVYYCAALRYTFAGRFDYWGQGTQVTVSS", "high polyreactivity"),
    ("QVQLVESGGRLVQAGGSRRLSCAASGSIFYRNAKRSYRQAPGKERELVAAISGRGGSTNYADSVKGRFTISRDNAKNTVYLQMNSLKPEDTAVYYCNRYGVSNILVRGGYWGQGTQVTVSS", "high polyreactivity"),
    ("QVQLVESVGGLVQAGGSLRLSCAASGFIFYQNAMGWYRQAPGKERELVAAISTTGSRTYYADSVKGRFTISRDNAKNTVYLQMNSLKPEDTAVYYCNAPRRVNYDYWGQGTQVTVSS", "high polyreactivity"),
    ("QVQLVESGGGLVQAGGSLRLSCAAYGSILLRYAMGWYRQAPGKERELVAAIRTIGASTYYADSVKGRFTISRDNAKNTVYLQMNSLKPEDTAVYYCNGYLAEVLQLGKCRLYDYWGQSTQVTVSS", "low polyreactivity"),
    ("QVQLEESGGGLVQAGGSLRLSCAASGLTFEWYTMGWYRQAPGKERELVAVITVSGSSTYYADSVKGRFSISRDNAKNTVYLQMNSLKPEDTAVYYCNADWSFYSYTLYDYWGQGTQVTVSS", "low polyreactivity"),
    ("QVQLVESGGGLVQAGGSLRLSCAASGFIFWSYAMVWYRQAPGKERELVAAISHGGSTNYADSVKGRFTISRDNSKNTVYLQMNSLKPEDTAVYYCAKDELYIPGVWPYYEYDYWGQGTQVTVSS", "low polyreactivity"),
    ("QGQLVESGGGLVQARGSLRLSCAAYGRTFYGNVMGWYRQAPGNERELDATISVSSGSTYYADSVKGRFTISRDTEKNTVYLLMNSLKPEDSAVYYCNADDTDYATGGGNYWGQGTQVTVSS", "low polyreactivity"),
    ("HVQLVESGGGLVQAGGSLRLSCAASGFTFVPYAMGWYRQAPGKERELVAAISSGGSTYYADSVKGRFTISRDNAKNTVYLQMNSLKPEDTAVYYCATTGWYRYGRKFYYWGQGTQVTVSS", "high polyreactivity"),
    ("QVQLVESGGGLVQAGGRLRLSCAASGITYEPYAMGWYRQAPGKERELVAAISRSGGSTYYADSVKGRFTISRDNAKNTVYLQMNSLKPVDTAVYYCNALRGTASRRGYYWGQGTQVTVSS", "high polyreactivity"),
    ("QVQLVESGGGLVQAGGSLRLSCAASGRAFYGNAMGWYRPAPGKERELVASISQRGGSTYYADSVKGRFTISRDTAKNTVYLQMNSLKPEDTAVYYCAARRKGYSTGLGHRISYDYWGQGTQVTVSS", "high polyreactivity"),
    ("QVQLVESGGGLVQSGGSLRLSCAASGRIIIRYAMGWYIQEPGKERELVAAISKNGGTTYYADSVKGRFTISRDNAKYTVYLQMNSLKPVDTAVYYGAKRLVSRGRTYAYPEYDYWGQGTQVTVSS", "high polyreactivity"),
    ("QVQLVESGGGLVQAGGSLRLSCAASGLTFSTNDMGWYRQAPGKEREFVAAISFNGGSTYYADSVKGRFTLSRDNAKNTVYLQMNSLKPEDTAVYYCAAGSDYGLYYGFDFWGQGTQVTVSS", "high polyreactivity"),
    ("QVQLVESGGGLVQAGGRLRLSCAASGATFYVYAMGWYRQAPGKERELVATIDSTDGDTYADSVKGRCTISRDNAKKTVYLQMNSLKPEDTAGYDCAATDLNIYYGYYDSWYWYELDYWGQGTQVTVSS", "high polyreactivity"),
    ("QVQLVESGGGLVQAGGSLRLSCAASGSTFITYAMGWYRQAPGKERELVAAISTGGSTYYADSVKGRFTISRDNAKNTVYLQMNSLKPEDTAVYYCNAYSSSRGSTLQYSLQYDYWGQGTQVTVSS", "low polyreactivity"),
    ("QVQLVESGGGLVQARGSLRLSCASSGITLYFNTMGCYRQPPGKESELVASISGGSSTYYADSVKGRFTISRDNAKNTVYLQMNSLKPEDTAVYYCNAQGSLFRGWFDYDYWGLGTQVTVSS", "low polyreactivity"),
    ("QVQLVESGGGLVQAGGSLRLSCAASGRTSGNYAKGWNRQAPGKERELVAAIRYSGSSTFYAESVKGRFTISRDSAKNSVYLQMNSLKPEDTGVYYCARDIRRKGFRYDYWGQGTQVTVSS", "high polyreactivity"),
]
